# measured_on: recombinant PRL-1 (Homo sapiens, UniProt Q93096)
# Construct: 6xHis (N, cleaved yes); made in house; host or cells: E. coli One Shot BL21 Star
# protocol: In vitro phosphatase assay (DiFMUP hydrolysis), PRL-1; note: test concentration or dose not given here
# Assay type: biochemical
# measurement_setup: FDA-approved drug screen; compared to DMSO
endpoint_label: % Phosphatase Activity (compared to DMSO) PRL-1 (%)

{"columns": ["compound", "measurement_units", "quantitative_result"],
 "data": [
  ["CC[C@H]1OC(=O)[C@H](C)[C@@H](O[C@H]2C[C@@](C)(OC)[C@@H](O)[C@H](C)O2)[C@H](C)[C@@H](O[C@@H]2O[C@H](C)C[C@H](N(C)C)[C@H]2O)[C@](C)(O)C[C@@H](C)C(=O)[C@H](C)[C@@H](O)[C@]1(C)O", "%", 91],
  ["O=C(O)c1cc(=O)[nH]c(=O)[nH]1.O=C(O)c1cc(=O)[nH]c(=O)[nH]1", "%", 106],
  ["CNCc1ccc(-c2[nH]c3cc(F)cc4c3c2CCNC4=O)cc1", "%", 2402],
  ["NCC1(CC(=O)O)CCCCC1", "%", 105],
  ["Oc1c(Cl)cc(Cl)c(Cl)c1Cc1c(O)c(Cl)cc(Cl)c1Cl [Hexachlorophene, reference compound]", "%", -2.83],
  ["N#Cc1ccc(C(c2ccc(C#N)cc2)n2cncn2)cc1", "%", 94],
  ["C[n+]1ccccc1/C=N/O.[Cl-] [Pralidoxime (chloride)]", "%", 99],
  ["CC1CCc2cc(F)cc3c(=O)c(C(=O)O)cn1c23 (centres unmarked)", "%", 122]
]}

----------
The reader will find reported % Phosphatase Activity (compared to DMSO) PRL-1 values listed item by item below.
# measured_on: recombinant PRL-1 (Homo sapiens)
# Construct: 6xHis (N, cleaved yes); made in house; host or cells: E. coli One Shot BL21 Star
# protocol: In vitro phosphatase assay (DiFMUP hydrolysis), PRL-1; note: test concentration or dose not given here
# Assay type: biochemical
# measurement_setup: FDA-approved drug screen; compared to DMSO
Structures can show the parent of a compound that is named as a salt.
endpoint_label: % Phosphatase Activity (compared to DMSO) PRL-1 (%)

{"columns": ["molecule", "quantitative_result"],
 "data": [
  ["CCN(CC)CCCC(C)Nc1ccnc2cc(Cl)ccc12 (centres unmarked) [Chloroquine Phosphate]", 104],
  ["Nc1ccn([C@@H]2O[C@H](CO)[C@@H](O)[C@@H]2O)c(=O)n1 [Cytarabine]", 104],
  ["CC(=O)Oc1cccc2c1C(=O)c1c(OC(C)=O)cc(C(=O)O)cc1C2=O [Diacerein]", 32],
  ["CC[C@H](Nc1ncnc2[nH]cnc12)c1nc2cccc(F)c2c(=O)n1-c1ccccc1 [CAL-101 (Idelalisib, GS-1101)]", 102],
  ["Cc1ccc(N(CC2=NCCN2)c2cccc(O)c2)cc1 [Phentolamine Mesylate]", 92],
  ["CCN(CC)CCOCCOC(=O)C(CC)(CC)c1ccccc1.O=C(O)CC(O)(CC(=O)O)C(=O)O [Oxeladin Citrate]", 90],
  ["C=C1[C@H](CO)[C@@H](O)C[C@@H]1n1cnc2c(=O)[nH]c(N)nc21 [Entecavir Hydrate]", 102],
  ["CC1(C)S[C@@H]2[C@H](NC(=O)[C@H](N)c3ccccc3)C(=O)N2[C@H]1C(=O)O [Ampicillin sodium]", 120]
]}

----------
# measured_on: recombinant PRL-1 (Homo sapiens, UniProt Q93096)
# Construct: 6xHis (N, cleaved yes); made in house; host or cells: E. coli One Shot BL21 Star
# Sequence (Q93096 1-173): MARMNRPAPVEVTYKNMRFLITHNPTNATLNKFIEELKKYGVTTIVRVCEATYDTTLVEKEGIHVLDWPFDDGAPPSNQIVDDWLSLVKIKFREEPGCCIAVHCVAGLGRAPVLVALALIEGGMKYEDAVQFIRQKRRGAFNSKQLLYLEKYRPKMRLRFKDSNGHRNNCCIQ
# protocol: In vitro phosphatase assay (DiFMUP hydrolysis), PRL-1; note: test concentration or dose not given here
# Type: biochemical
# measurement_setup: FDA-approved drug screen; compared to DMSO
endpoint_label: % Phosphatase Activity (compared to DMSO) PRL-1 (%)

{"columns": ["molecule", "measured_on", "measurement_units", "quantitative_result"],
 "data": [
  ["CCN(CC)CC#CCOC(=O)C(O)(c1ccccc1)C1CCCCC1 (centres unmarked) [Oxybutynin chloride]", "recombinant PRL-1 (Homo sapiens, UniProt Q93096)", "%", 88],
  ["C1N2CN3CN1CN(C2)C3", "recombinant PRL-1 (Homo sapiens, UniProt Q93096)", "%", 112],
  ["CCOc1cc2ncc(C#N)c(Nc3ccc(F)c(Cl)c3)c2cc1NC(=O)/C=C/CN(C)C [Pelitinib (EKB-569)]", "recombinant PRL-1 (Homo sapiens, UniProt Q93096)", "%", 111],
  ["O=C(O)c1ccccc1Nc1cccc(C(F)(F)F)c1", "recombinant PRL-1 (Homo sapiens, UniProt Q93096)", "%", 81],
  ["CCc1cccc2c3c([nH]c12)C(CC)(CC(=O)O)OCC3 (centres unmarked)", "recombinant PRL-1 (Homo sapiens, UniProt Q93096)", "%", 96]
]}

----------
Parameter: % Phosphatase Activity (compared to DMSO) PRL-3. Scope: all listed entries.
# measured_on: recombinant PRL-3 (Homo sapiens, UniProt O75365)
# Construct: 6xHis (N, cleaved yes); made in house; host or cells: E. coli One Shot BL21 Star
# Sequence (O75365 whole entry): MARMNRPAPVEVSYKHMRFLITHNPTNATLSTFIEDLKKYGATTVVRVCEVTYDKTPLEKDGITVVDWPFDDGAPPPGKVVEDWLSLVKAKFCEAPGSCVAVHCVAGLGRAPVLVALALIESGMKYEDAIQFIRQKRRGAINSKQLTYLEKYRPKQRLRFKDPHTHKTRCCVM
# protocol: In vitro phosphatase assay (DiFMUP hydrolysis), PRL-3; note: test concentration or dose not given here
# Assay type: biochemical
# measurement_setup: FDA-approved drug screen; activity compared to DMSO
Counter-ions that a name gives are not always drawn.
endpoint_label: % Phosphatase Activity (compared to DMSO) PRL-3 (%)

{"columns": ["compound", "measured_on", "measurement_units", "quantitative_result"],
 "data": [
  ["CCOC(=O)[C@H](CCc1ccccc1)N[C@H]1CS[C@H](c2cccs2)CN(CC(=O)O)C1=O [Temocapril HCl]", "recombinant PRL-3 (Homo sapiens, UniProt O75365)", "%", 73],
  ["Nc1nc(N)c2nc(-c3ccccc3)c(N)nc2n1", "recombinant PRL-3 (Homo sapiens, UniProt O75365)", "%", 3828],
  ["CS(=O)(=O)c1ccc([C@@H](O)[C@@H](CO)NC(=O)C(Cl)Cl)cc1", "recombinant PRL-3 (Homo sapiens, UniProt O75365)", "%", 81],
  ["C[C@]1(c2nc3c(C(N)=O)cccc3[nH]2)CCCN1", "recombinant PRL-3 (Homo sapiens, UniProt O75365)", "%", 83],
  ["Nc1ncnc2c1ncn2[C@@H]1O[C@H](CO)[C@@H](O)[C@@H]1O", "recombinant PRL-3 (Homo sapiens, UniProt O75365)", "%", 121],
  ["CC(C)Nc1cc(-c2c[nH]c(C(=O)N[C@H](CO)c3cccc(Cl)c3)c2)c(Cl)cn1", "recombinant PRL-3 (Homo sapiens, UniProt O75365)", "%", 105],
  ["CC(=O)S[C@@H]1CC2=CC(=O)CC[C@]2(C)[C@H]2CC[C@@]3(C)[C@@H](CC[C@@]34CCC(=O)O4)[C@H]12", "recombinant PRL-3 (Homo sapiens, UniProt O75365)", "%", 68],
  ["CNC(=O)c1cc(Oc2ccc(NC(=O)Nc3ccc(Cl)c(C(F)(F)F)c3)cc2)ccn1 [Sorafenib]", "recombinant PRL-3 (Homo sapiens, UniProt O75365)", "%", 95],
  ["COc1cc2c(cc1OC)C1CC(=O)C(CC(C)C)CN1CC2 (centres unmarked)", "recombinant PRL-3 (Homo sapiens, UniProt O75365)", "%", 84],
  ["Cc1ccc(S(=O)(=O)NC(=O)NN2CCCCCC2)cc1 [Tolazamide]", "recombinant PRL-3 (Homo sapiens, UniProt O75365)", "%", 82],
  ["Cc1cn([C@@H]2C[C@@H](O)[C@H](CO)O2)c(=O)[nH]c1=O", "recombinant PRL-3 (Homo sapiens, UniProt O75365)", "%", 80],
  ["C[C@]12C=CC(=O)C=C1CC[C@H]1[C@@H]3C[C@@H](O)[C@](O)(C(=O)CO)[C@@]3(C)C[C@H](O)[C@@]12F", "recombinant PRL-3 (Homo sapiens, UniProt O75365)", "%", 81],
  ["CC(C)NCC(O)c1ccc(NS(C)(=O)=O)cc1 (centres unmarked)", "recombinant PRL-3 (Homo sapiens, UniProt O75365)", "%", 78],
  ["COc1cccc(-c2ccc(NC(=O)C3=C(C(=O)O)CCC3)c(F)c2)c1", "recombinant PRL-3 (Homo sapiens, UniProt O75365)", "%", 91],
  ["CCCC(CCC)C(=O)[O-].[Na+]", "recombinant PRL-3 (Homo sapiens, UniProt O75365)", "%", 77],
  ["CCN(CC)CCNC(=O)c1c(C)[nH]c(/C=C2\\C(=O)Nc3ccc(F)cc32)c1C [Sunitinib Malate]", "recombinant PRL-3 (Homo sapiens, UniProt O75365)", "%", 65],
  ["CC(C)(C)C(=O)Oc1ccc(S(=O)(=O)Nc2ccccc2C(=O)NCC(=O)O)cc1 [Sivelestat sodium]", "recombinant PRL-3 (Homo sapiens, UniProt O75365)", "%", 75],
  ["CNC(=O)c1cc(Oc2ccc(NC(=O)Nc3ccc(Cl)c(C(F)(F)F)c3)cc2)ccn1 [Sorafenib Tosylate]", "recombinant PRL-3 (Homo sapiens, UniProt O75365)", "%", 73],
  ["CNS(=O)(=O)Cc1ccc2[nH]cc(CCN(C)C)c2c1 [Sumatriptan Succinate]", "recombinant PRL-3 (Homo sapiens, UniProt O75365)", "%", 80],
  ["Cn1ncc(Cl)c1-c1cc(C(=O)N[C@H](CN)Cc2ccc(F)c(F)c2)oc1Cl", "recombinant PRL-3 (Homo sapiens, UniProt O75365)", "%", 103],
  ["CCCc1nc(C)c2c(=O)[nH]c(-c3cc(S(=O)(=O)N4CCN(CC)CC4)ccc3OCC)nn12.Cl.O.O.O [Vardenafil HCl Trihydrate]", "recombinant PRL-3 (Homo sapiens, UniProt O75365)", "%", 84],
  ["Cc1ccc(C(=O)c2cc(O)c(O)c([N+](=O)[O-])c2)cc1", "recombinant PRL-3 (Homo sapiens, UniProt O75365)", "%", 71],
  ["CC(=O)N[C@H]1[C@H]([C@H](O)[C@H](O)CO)OC(C(=O)O)=C[C@@H]1N=C(N)N", "recombinant PRL-3 (Homo sapiens, UniProt O75365)", "%", 115],
  ["CC(=O)O[C@H]1C[C@@H]2CC[C@@H]3[C@H](CC[C@@]4(C)[C@H]3C[C@H]([N+]3(C)CCCCC3)[C@@H]4OC(C)=O)[C@@]2(C)C[C@@H]1N1CCCCC1 [Vecuronium Bromide]", "recombinant PRL-3 (Homo sapiens, UniProt O75365)", "%", 87],
  ["CN(N=O)C(=O)N[C@H]1C(O)O[C@H](CO)[C@@H](O)[C@@H]1O (mixture of isomers) [Streptozotocin (STZ)]", "recombinant PRL-3 (Homo sapiens, UniProt O75365)", "%", 78],
  ["Cl.Cl.Cl.O[C@@H](COc1cccc2ncccc12)CN1CCN([C@@H]2c3ccccc3[C@@H]3[C@H](c4ccccc42)C3(F)F)CC1 [Zosuquidar (LY335979) 3HCl]", "recombinant PRL-3 (Homo sapiens, UniProt O75365)", "%", 91],
  ["Cc1cccc(Nc2ccncc2S(=O)(=O)NC(=O)NC(C)C)c1 [Torsemide]", "recombinant PRL-3 (Homo sapiens, UniProt O75365)", "%", 77],
  ["COCC[n+]1c2c(n(Cc3cnccn3)c1C)C(=O)c1ccccc1C2=O.[Br-] [YM155 (Sepantronium Bromide)]", "recombinant PRL-3 (Homo sapiens, UniProt O75365)", "%", 5],
  ["Cn1nnc2c(C(N)=O)ncn2c1=O [Temozolomide]", "recombinant PRL-3 (Homo sapiens, UniProt O75365)", "%", 65],
  ["CC/C(=C(\\c1ccccc1)c1ccc(OCCN(C)C)cc1)c1ccccc1 [Tamoxifen Citrate]", "recombinant PRL-3 (Homo sapiens, UniProt O75365)", "%", 95],
  ["Cc1cn([C@H]2C=C[C@@H](CO)O2)c(=O)[nH]c1=O", "recombinant PRL-3 (Homo sapiens, UniProt O75365)", "%", 88],
  ["Cn1c(=O)cc(N2CCC[C@@H](N)C2)n(Cc2cc(F)ccc2C#N)c1=O", "recombinant PRL-3 (Homo sapiens, UniProt O75365)", "%", 107]
]}
